Tested on: HeLa
PROTOCOL: Cell cycle arrest in human HeLa cells assessed as accumulation at S phase at 1 uM after 24 hrs by flow cytometry
Format: functional
MEASURED PROPERTY: Activity (%)
Give bare numbers, in %.

C=C(Br)C(=O)Nc1cccc(/C=C2\CC(C)C/C(=C\c3cccc(NC(=O)C(=C)Br)c3)C2=O)c1 (centres undefined) = 31.3
C=C(Br)C(=O)Nc1cccc(/C=C2\CCC/C(=C\c3cccc(NC(=O)C(=C)Br)c3)C2=O)c1 = 22.7
C=C(Br)C(=O)Nc1cccc(/C=C2\CN(C(=O)OC)C/C(=C\c3cccc(NC(=O)C(=C)Br)c3)C2=O)c1 = 17.5

Turning now to a further record.
query: Given the compound C=C(Br)C(=O)Nc1cccc(/C=C2\CCCCC/C(=C\c3cccc(NC(=O)C(=C)Br)c3)C2=O)c1 , what is its reported Activity?
result: 12.9

###

Hi there, I'd appreciate the recorded Activity for every entry that follows.
System: HeLa
PROTOCOL: Cell cycle arrest in human HeLa cells assessed as accumulation at sub-G1 phase at 0.25 uM after 24 hrs by flow cytometry
Assay type: functional
One number for each entry, in %.

Illustrative cases are given below, each with its answer.
C=C(Br)C(=O)Nc1cccc(/C=C2\CCCCC/C(=C\c3cccc(NC(=O)C(=C)Br)c3)C2=O)c1 = 2.5
C=C(Br)C(=O)Nc1cccc(/C=C2\CCC/C(=C\c3cccc(NC(=O)C(=C)Br)c3)C2=O)c1 = 4.7
C=C(Br)C(=O)Nc1cccc(/C=C2\CN(C(=O)OC)C/C(=C\c3cccc(NC(=O)C(=C)Br)c3)C2=O)c1 = 8

Now consider the entry below.
query: If you can, please state the reported Activity value of C=C(Br)C(=O)Nc1cccc(/C=C2\CC(C)C/C(=C\c3cccc(NC(=O)C(=C)Br)c3)C2=O)c1 (centres undefined) .
result: 3.2

###

Test system: HeLa
PROTOCOL: Cell cycle arrest in human HeLa cells assessed as accumulation at G1 phase at 1 uM after 24 hrs by flow cytometry
Format: functional
MEASURED PROPERTY: Activity (%)
One number for each entry, in %.

C=C(Br)C(=O)Nc1cccc(/C=C2\CC(C)C/C(=C\c3cccc(NC(=O)C(=C)Br)c3)C2=O)c1 (centres undefined) = 26.5
C=C(Br)C(=O)Nc1cccc(/C=C2\CCCCC/C(=C\c3cccc(NC(=O)C(=C)Br)c3)C2=O)c1 = 32.6
C=C(Br)C(=O)Nc1cccc(/C=C2\CCC/C(=C\c3cccc(NC(=O)C(=C)Br)c3)C2=O)c1 = 28.8

query: Param readout= Activity; system= HeLa; entry= C=C(Br)C(=O)Nc1cccc(/C=C2\CN(C(=O)OC)C/C(=C\c3cccc(NC(=O)C(=C)Br)c3)C2=O)c1 ; returns value.
result: 57

###

I'd appreciate it if you could supply Activity values for the items below.
System: HeLa
PROTOCOL: Cell cycle arrest in human HeLa cells assessed as accumulation at G1 phase at 0.5 uM after 24 hrs by flow cytometry
Format: functional
One number for each entry, in %.

C=C(Br)C(=O)Nc1cccc(/C=C2\CN(C(=O)OC)C/C(=C\c3cccc(NC(=O)C(=C)Br)c3)C2=O)c1 = 51.9
C=C(Br)C(=O)Nc1cccc(/C=C2\CC(C)C/C(=C\c3cccc(NC(=O)C(=C)Br)c3)C2=O)c1 (centres undefined) = 59.2
C=C(Br)C(=O)Nc1cccc(/C=C2\CCC/C(=C\c3cccc(NC(=O)C(=C)Br)c3)C2=O)c1 = 50.9

query: What value of Activity has been recorded for this entry: C=C(Br)C(=O)Nc1cccc(/C=C2\CCCCC/C(=C\c3cccc(NC(=O)C(=C)Br)c3)C2=O)c1
result: 64.4

###

Test system: HeLa
PROTOCOL: Cell cycle arrest in human HeLa cells assessed as accumulation at sub-G1 phase at 1 uM after 24 hrs by flow cytometry
Format: functional
MEASURED PROPERTY: Activity (%)
Give bare numbers, in %.

Worked cases, answers included:
C=C(Br)C(=O)Nc1cccc(/C=C2\CCC/C(=C\c3cccc(NC(=O)C(=C)Br)c3)C2=O)c1 = 27.2
C=C(Br)C(=O)Nc1cccc(/C=C2\CN(C(=O)OC)C/C(=C\c3cccc(NC(=O)C(=C)Br)c3)C2=O)c1 = 8.2
C=C(Br)C(=O)Nc1cccc(/C=C2\CC(C)C/C(=C\c3cccc(NC(=O)C(=C)Br)c3)C2=O)c1 (centres undefined) = 4.5

For the next question, use this compound.
query: // lookup Activity for C=C(Br)C(=O)Nc1cccc(/C=C2\CCCCC/C(=C\c3cccc(NC(=O)C(=C)Br)c3)C2=O)c1
result: 15.6

###

Tested on: HeLa
PROTOCOL: Cell cycle arrest in human HeLa cells assessed as accumulation at G2M phase at 0.25 uM after 24 hrs by flow cytometry
Format: functional
MEASURED PROPERTY: Activity (%)
One number for each entry, in %.

In the examples that follow, each entry is paired with its recorded Activity.
C=C(Br)C(=O)Nc1cccc(/C=C2\CCCCC/C(=C\c3cccc(NC(=O)C(=C)Br)c3)C2=O)c1 = 16.5
C=C(Br)C(=O)Nc1cccc(/C=C2\CCC/C(=C\c3cccc(NC(=O)C(=C)Br)c3)C2=O)c1 = 16.1
C=C(Br)C(=O)Nc1cccc(/C=C2\CN(C(=O)OC)C/C(=C\c3cccc(NC(=O)C(=C)Br)c3)C2=O)c1 = 14.5

# context switch: different compound, same Activity
query: Short answer please: Activity, HeLa, entry C=C(Br)C(=O)Nc1cccc(/C=C2\CC(C)C/C(=C\c3cccc(NC(=O)C(=C)Br)c3)C2=O)c1 (centres undefined)
result: 14.8
